Measured values drawn from BindingDB's records for doi:10.1016/j.bmcl.2004.03.096 for this set.

Assay: Concentration required against dynamin-1 GTPase activity of sheep brain.
Binary label based on IC50 with cut-off 10 µM: below gives y, not below gives n.

Input line: Is the reported IC50 for "CCCCCCCCCCCCC(=O)NCCN(C)C" strictly below 10 µM?
Output line: y

Input line: Is the reported IC50 for "CCCCCCCCCCCCCCN" strictly below 10 µM?
Output line: n

Input line: Is the reported IC50 for "CCCCCCCCCCCCCC[N+](C)(C)CCC" strictly below 10 µM?
Output line: y

Input line: Is the reported IC50 for "NCCCCCCCCCCCCN" strictly below 10 µM?
Output line: n

Input line: Is the reported IC50 for "CCCCCCCCCCCCC(=O)OCCN(C)C" strictly below 10 µM?
Output line: n

Input line: Is the reported IC50 for "CCCCCCCCCCCCCCOC(CN)CN" strictly below 10 µM?
Output line: y

Input line: Is the reported IC50 for "CCCCCCCCCCCCCC[N+](C)(C)CCCC" strictly below 10 µM?
Output line: y

Input line: Is the reported IC50 for "CCCC/C=C\C/C=C\C/C=C\C/C=C\CCCC(=O)NCCF" strictly below 10 µM?
Output line: n

Input line: Is the reported IC50 for "CCCCCCCCCCCCCC[N+](C)(C)CCO" strictly below 10 µM?
Output line: y

Input line: Is the reported IC50 for CCCCCCCCCCCCCC[N+](CC)(CC)CC [Triethyl-tetradecyl-ammonium; bromide] strictly below 10 µM?
Output line: y

Input line: Is the reported IC50 for CCCCCCCCCCCCCCCC[N+](CC)(CC)CC [Triethyl-hexadecyl-ammonium; bromide] strictly below 10 µM?
Output line: y

Input line: Is the reported IC50 for CCCCCCCCCCCCCCN [Tetradecylamine] strictly below 10 µM?
Output line: n
